# tested-target: MATE2-K (Homo sapiens, UniProt Q86VL8)
# Sequence (Q86VL8 1-566 isoform Q86VL8-3): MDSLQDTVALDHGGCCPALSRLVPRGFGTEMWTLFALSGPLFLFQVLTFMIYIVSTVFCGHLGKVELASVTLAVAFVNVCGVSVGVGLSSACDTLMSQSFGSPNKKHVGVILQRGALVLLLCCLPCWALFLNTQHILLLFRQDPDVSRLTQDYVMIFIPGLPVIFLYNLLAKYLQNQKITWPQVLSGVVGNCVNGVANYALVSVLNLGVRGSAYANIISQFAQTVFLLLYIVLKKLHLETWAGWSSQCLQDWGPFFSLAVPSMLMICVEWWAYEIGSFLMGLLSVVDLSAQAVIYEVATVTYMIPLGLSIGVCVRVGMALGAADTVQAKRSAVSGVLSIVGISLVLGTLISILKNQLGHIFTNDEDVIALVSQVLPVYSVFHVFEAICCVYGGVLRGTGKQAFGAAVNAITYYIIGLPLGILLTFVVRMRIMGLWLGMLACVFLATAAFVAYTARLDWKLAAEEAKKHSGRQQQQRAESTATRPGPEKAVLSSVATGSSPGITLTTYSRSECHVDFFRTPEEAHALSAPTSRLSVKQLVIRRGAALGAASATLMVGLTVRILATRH
# procedure-summary: in vitro
# condition-set: human, pH 8

- query-smiles: "C[C@H](Nc1ncnc(N)c1C#N)c1cc2ncc(Cl)n2nc1-c1ccccc1"
  tested-target: "MATE2-K (Homo sapiens, UniProt Q86VL8)"
  result-units: "%"
  inhibition at 2 min, 0.3 µM: 12.9

* * *

# procedure-summary: Single-dose PK in ICR mice (IV/PO)
# condition-set: male, ICR, mouse, in vivo, iv, 2.5 mg/kg
measured-endpoint: AUC(0-inf) (ng·h/mL)

- query-smiles: "C[C@H](Nc1ncnc(N)c1C#N)c1cc2ncc(Cl)n2nc1-c1ccccc1"
  result-units: "ng·h/mL"
  observed: 2830

* * *

# tested-target: BCRP (Homo sapiens)
# Sequence (Q9UNQ0 1-655): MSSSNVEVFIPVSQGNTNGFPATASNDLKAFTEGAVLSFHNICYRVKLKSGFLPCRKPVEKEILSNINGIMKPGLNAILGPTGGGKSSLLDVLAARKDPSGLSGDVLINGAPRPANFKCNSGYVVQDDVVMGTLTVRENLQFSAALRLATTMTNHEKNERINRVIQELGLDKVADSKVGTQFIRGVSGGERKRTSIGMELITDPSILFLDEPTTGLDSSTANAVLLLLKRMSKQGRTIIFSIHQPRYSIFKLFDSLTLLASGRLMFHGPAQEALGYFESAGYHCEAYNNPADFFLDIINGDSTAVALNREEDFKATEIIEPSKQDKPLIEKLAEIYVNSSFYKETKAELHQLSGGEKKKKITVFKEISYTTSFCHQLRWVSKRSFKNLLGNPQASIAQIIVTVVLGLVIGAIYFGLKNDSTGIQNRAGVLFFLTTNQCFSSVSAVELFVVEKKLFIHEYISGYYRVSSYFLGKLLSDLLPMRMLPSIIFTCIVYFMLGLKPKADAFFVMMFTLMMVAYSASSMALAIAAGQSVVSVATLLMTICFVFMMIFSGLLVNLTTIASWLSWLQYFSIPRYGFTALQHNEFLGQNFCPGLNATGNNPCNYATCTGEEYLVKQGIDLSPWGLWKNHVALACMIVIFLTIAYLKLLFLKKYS
# procedure-summary: in vitro
# condition-set: human

- compound: "C[C@H](Nc1ncnc(N)c1C#N)c1cc2ncc(Cl)n2nc1-c1ccccc1 [Amdizalisib]"
  tested-target: "BCRP (Homo sapiens)"
  inhibition at 60 min, 40 µM: "52.9%"

* * *

# procedure-summary: Single-dose PK in ICR mice (IV/PO)
# condition-set: male, ICR, mouse, in vivo, po, 10 mg/kg
measured-endpoint: half-life (h)

- query-smiles: "C[C@H](Nc1ncnc(N)c1C#N)c1cc2ncc(Cl)n2nc1-c1ccccc1"
  measured-endpoint: "half-life"
  observed: 4.16

* * *

# tested-target: OAT3 (Homo sapiens)
# Sequence (Q8TCC7 whole entry): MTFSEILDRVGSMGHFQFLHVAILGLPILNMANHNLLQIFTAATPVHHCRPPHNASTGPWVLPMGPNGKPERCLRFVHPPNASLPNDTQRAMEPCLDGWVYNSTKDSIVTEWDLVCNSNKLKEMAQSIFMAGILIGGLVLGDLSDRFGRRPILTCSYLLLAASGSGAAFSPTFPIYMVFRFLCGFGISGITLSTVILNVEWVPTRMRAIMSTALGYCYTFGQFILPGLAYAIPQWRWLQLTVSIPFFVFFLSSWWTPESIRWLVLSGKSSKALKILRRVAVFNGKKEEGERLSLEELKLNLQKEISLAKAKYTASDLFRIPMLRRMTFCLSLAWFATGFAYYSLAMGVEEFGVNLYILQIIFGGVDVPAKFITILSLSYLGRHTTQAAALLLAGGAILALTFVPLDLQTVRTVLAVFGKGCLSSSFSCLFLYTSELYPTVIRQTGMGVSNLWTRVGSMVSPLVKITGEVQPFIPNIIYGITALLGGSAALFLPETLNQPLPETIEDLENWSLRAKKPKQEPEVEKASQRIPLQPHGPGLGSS
# procedure-summary: OAT3 inhibition, estrone 3-sulfate uptake in transfected HEK293 cells
# condition-set: human, pH 7.4
measured-endpoint: inhibition at 2 min, 1 µM (%)

- query-smiles: "C[C@H](Nc1ncnc(N)c1C#N)c1cc2ncc(Cl)n2nc1-c1ccccc1"
  observed: -2.52

* * *

# procedure-summary: Caco-2 bidirectional transport permeability
# Type: in vitro ADME, human
# condition-set: human
measured-endpoint: Papp B→A at 150 min, 10 µM (×10⁻⁶ cm/s)

- query-smiles: "C[C@H](Nc1ncnc(N)c1C#N)c1cc2ncc(Cl)n2nc1-c1ccccc1"
  observed: 55.6
